Just for reference, patent US20210070881A1 is where these values come from.

- target: cellular BACE1 in CHOK1-huAPP cells
- test_details: cell-based or functional assay
Exercise: state measured IC50 for each of the binders provided.
Only the number, expressed in nM, is required.

Query hu2H8v29 (antibody, V domains shown, humanized; also called hu2H8_HC6 + hu2H8_LC5) VH: QVQLVQSGAEVKKPGASVKVSCKASGYTFTNFWIHWVRQAPGQGLEWMGMIDPSDSYTKYNQKFKARATLTVDTSTSTVYMELSSLRSEDTAVYYCARSGVAFPYWGQGTLVTVSS VL: DIQMTQSPSSLSASVGDRVTITCKASQDVGRNVAWYQQKPGKSPKSLIYSASHRYSGVPSRFSGSGSGTDFTLTISSLQPEDFATYFCQQYNSYPYTFGQGTKVEIK yields IC50 of 14.8

Query 2H8 (antibody, human IgG1, V domains shown, chimeric, human IgG1/kappa; also called Clone 2H8; 2H8.01) VH: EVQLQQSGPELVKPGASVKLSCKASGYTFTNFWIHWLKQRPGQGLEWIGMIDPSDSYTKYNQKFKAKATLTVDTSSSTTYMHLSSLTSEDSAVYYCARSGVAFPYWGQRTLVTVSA VL: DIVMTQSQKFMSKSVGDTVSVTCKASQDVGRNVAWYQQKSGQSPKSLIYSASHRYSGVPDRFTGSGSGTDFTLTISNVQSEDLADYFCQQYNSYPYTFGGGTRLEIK yields IC50 of 24.8

Query hu2H8v17 (antibody, V domains shown, humanized; also called hu2H8_HC6 + hu2H8_LC3) VH: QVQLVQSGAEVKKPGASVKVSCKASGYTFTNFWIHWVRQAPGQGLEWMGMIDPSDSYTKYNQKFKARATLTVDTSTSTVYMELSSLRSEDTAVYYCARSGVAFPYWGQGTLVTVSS VL: DIQMTQSPSSLSASVGDRVTITCKASQDVGRNVAWYQQKPGKAPKSLIYSASHRYSGVPSRFSGSGSGTDFTLTISSLQPEDFATYYCQQYNSYPYTFGQGTKVEIK yields IC50 of 22.1
